Assay: Cytotoxicity against mouse peritoneal macrophages at IC50 for Leishmania amazonensis MHOM/ BR/77/LTB0016
Format: cell-based
Settings: peritoneal macrophage cell
Assay Readout: Activity (%)
State just the number; it will be interpreted in %.

Brc1ccc(-n2cc(C3=NCCN3)cn2)cc1	3.52
N=C(N)c1ccc(OCCCCCOc2ccc(C(=N)N)cc2)cc1	31
Clc1ccc(-n2cc(C3=NCCN3)cn2)cc1Cl	5.32
c1ccc(-n2cc(C3=NCCN3)cn2)cc1	11.26
Clc1cc(Cl)cc(-n2cc(C3=NCCN3)cn2)c1	3.97

# Activity of `Brc1cccc(-n2cc(C3=NCCN3)cn2)c1` = 11.98

* * *

Assay: Cytotoxicity against mouse peritoneal macrophages at IC50 for Leishmania amazonensis MHOM/ BR/77/LTB0016
Type: cell-based
Settings: peritoneal macrophage cell
Measured Activity, listed per entry.
State just the number; it will be interpreted in %.

Nc1c(C2=NCCN2)cnn1-c1ccc(Cl)c(Cl)c1	15.5
Nc1c(C2=NCCN2)cnn1-c1cccc(Cl)c1	15.2

Kindly review the next compound as well.
# Activity of `Clc1cccc(-n2cc(C3=NCCN3)cn2)c1` = 6.46
